# Test system: L6-myotubes
# Run description: Measurement of intracellular cAMP levels in differentiated L6-myotubes (Biological Example 3)
# Assay type: cell-based
# Test context: 0.25 h, intracellular cAMP; compound at 10 μM relative to isoproterenol at 10 μM
Test readout: Emax at 10 µM

[[record]]
molecule = "CC1(NC[C@H](O)c2cccc(F)c2)CC1 [Compound 82]"
test_readout = "Emax at 10 µM"
meas_value = "< 25%"

[[record]]
molecule = "CCCCNCC(O)c1cc(O)cc(O)c1 (stereo not shown) [Compound 26]"
test_readout = "Emax at 10 µM"
meas_value = "< 25%"

[[record]]
molecule = "CCC[C@@H]1CC[C@@H]([C@H](O)c2cccc(F)c2)N1 [Compound 132]"
test_readout = "Emax at 10 µM"
meas_value = "< 25%"

[[record]]
molecule = "CCCC(C)NCC(O)c1ccc(Cl)c(O)c1 (stereo not shown) [Compound 35]"
test_readout = "Emax at 10 µM"
meas_value = "< 25%"


Q: Provide Emax at 10 µM, recorded with L6-myotubes, of CC12CC(C1)[C@H]([C@@H](O)c1cccc(F)c1)N2 [Compound 187]
Result: < 25%

----------
Emax at 10 µM overview
# Tested on: L6-myotubes
# Run description: Measurement of intracellular cAMP levels in differentiated L6-myotubes (Biological Example 3)
# Type: cell-based
# Test context: 0.25 h, intracellular cAMP in differentiated L6-myotubes; compound at 10 μM, activity relative to isoproterenol at 10 μM

[[record]]
query_smiles = "CO[C@H]1CC[C@@H](CCCNC[C@H](O)c2cccc(F)c2)CC1"
meas_value = "50 to 75%"

[[record]]
query_smiles = "CO[C@H]1CC[C@H](CC(C)(C)NC[C@H](O)c2cncc(F)c2)CC1"
meas_value = "< 25%"

[[record]]
query_smiles = "CS(=O)(=O)N(Cc1ccccc1)c1ccc(CC23CCC([C@@H](O)c4cccc(F)c4)(CC2)N3)cc1"
meas_value = "< 25%"

[[record]]
query_smiles = "CC(C)(CC[C@H]1CC[C@@H](O)CC1)NC[C@H](O)c1cccc(F)c1"
meas_value = "< 25%"

[[record]]
query_smiles = "CC(=O)N[C@H]1CC[C@H](CC(C)(C)NC[C@H](O)c2cccc(C#N)n2)CC1"
meas_value = "25 to 50%"

[[record]]
query_smiles = "CC(C)(C[C@H]1CC[C@@H](NS(C)(=O)=O)CC1)NC[C@H](O)c1cccc(C#N)n1"
meas_value = "< 25%"

[[record]]
query_smiles = "O[C@@H](c1cccc(F)c1)[C@H]1CC[C@H](Cc2ccc(Cl)cc2)N1"
meas_value = "< 25%"


Q: Recall the reported Emax at 10 µM of COC(=O)[C@H]1CC[C@H](C(C)(C)NC[C@H](O)c2cncc(F)c2)CC1 when tested on L6-myotubes.
Result: < 25%

----------
# System: L6-myotubes
# Run description: Measurement of intracellular cAMP levels in differentiated L6-myotubes (Biological Example 3)
# Format: cell-based
# Test context: 0.25 h, intracellular cAMP; compound at 10 μM relative to isoproterenol at 10 μM
Some molecules, each annotated with its measured Emax at 10 µM.

Below, each entry is followed by its recorded Emax at 10 µM result.
[[record]]
molecule = "O[C@H](c1cccc(F)c1)[C@H]1CCC2(CCCC2)N1"
test_readout = "Emax at 10 µM"
meas_value = "25 to 50%"

[[record]]
molecule = "CCC[C@@H](C)NC[C@H](O)c1ccc(O)cc1"
test_readout = "Emax at 10 µM"
meas_value = "25 to 50%"

[[record]]
molecule = "CC1(C)CC[C@H]([C@@H](O)c2cccc(Cl)c2)N1"
test_readout = "Emax at 10 µM"
meas_value = "< 25%"


Q: Input CCCCCCCCNCC(O)c1ccc(O)cc1 (centres unmarked) , output reported Emax at 10 µM.
Result: < 25%

Q: Write down Emax at 10 µM measured for item CCCCNCC(O)c1ccc(F)c(F)c1 (centres unmarked)
Result: < 25%

Q: In one line, give reported Emax at 10 µM of the entry CCC[C@@H]1CC[C@H]([C@H](O)c2ccccc2Cl)N1 .
Result: < 25%

Q: Report measured Emax at 10 µM; entry is CCC[C@@H]1CCC[C@@H]([C@H](O)c2cccc(F)c2)N1
Result: < 25%

Q: Item CC12CC(C1)[C@H]([C@H](O)c1cccc(F)c1)N2 : provide Emax at 10 µM
Result: 50 to 75%

Q: State its Emax at 10 µM: CCC[C@H]1CCC[C@H]([C@H](O)c2ccc(F)cc2)N1
Result: < 25%

Q: Could you please provide reported Emax at 10 µM for CC1(C)CC[C@H]([C@@H](O)c2ccc(F)cc2)N1 ? Thanks!
Result: < 25%
